- PROCEDURE_TEXT: [3H]Thymidine incorporation assay (cytotoxicity, CC50)
- ASSAY_SETUP: human
Quick reference for CC50 at 72 h among some molecules

Worked examples, 5 molecules total:
COMPOUND: Cc1nnc(CN(c2cc(C#CC(C)(C)C)sc2C(=O)O)C(=O)[C@H]2CC[C@H](C)CC2)o1
CC50 at 72 h: < 10 µM

COMPOUND: CC(C)(C)C#Cc1cc(N(C(=O)c2ccc(C(F)(F)F)cc2)[C@H]2CC[C@H](O)CC2)c(C(=O)O)s1
CC50 at 72 h: 10 to 100 µM

COMPOUND: Cn1nccc1CN(c1cc(C#CC(C)(C)C)sc1C(=O)O)C(=O)[C@H]1CC[C@H](C)CC1
CC50 at 72 h: > 100 µM

COMPOUND: CC(C)N(c1cc(C#CC2CCCCC2)sc1C(=O)O)C(=O)[C@H]1CC[C@H](C)CC1
CC50 at 72 h: 10 to 100 µM

COMPOUND: CC(C)(C)C#Cc1cc(N(C(=O)c2ccc(Cl)cc2Cl)[C@H]2CC[C@H](O)CC2)c(C(=O)O)s1
CC50 at 72 h: 10 to 100 µM

In one line, give reported CC50 at 72 h of the entry CC(C)N(c1cc(C#CC2CC2)sc1C(=O)O)C(=O)[C@H]1CC[C@H](C)CC1 .
10 to 100 µM

Tell me its CC50 at 72 h given Cc1ccc(C(=O)N(c2cc(C#CC(C)(C)C)sc2C(=O)O)[C@H]2CC[C@H](O)CC2)cc1 as the entry.
10 to 100 µM

====

- Test system: Huh-7 ET, Molt-4, DU-145, Hep-G2 and SH-SY5Y cells
- PROCEDURE_TEXT: [3H]Thymidine incorporation assay (cytotoxicity, CC50)
- ASSAY_SETUP: [3H]thymidine incorporation; cell line not given
EXPERIMENTAL_READOUT: CC50

// solved cases for CC50 follow
COMPOUND: CCc1noc(CN(c2cc(C#CC(C)(C)C)sc2C(=O)O)C(=O)[C@H]2CC[C@H](C)CC2)n1
MEASURED_TARGET: Huh-7 ET, Molt-4, DU-145, Hep-G2 and SH-SY5Y cells
CC50: 10 to 100 µM
//
COMPOUND: CC(=O)N1CC[C@H](N(c2cc(C#CC(C)(C)C)sc2C(=O)O)C(=O)[C@H]2CC[C@H](C)CC2)C1 (stereo in doubt)
MEASURED_TARGET: Huh-7 ET, Molt-4, DU-145, Hep-G2 and SH-SY5Y cells
CC50: > 100 µM
//
COMPOUND: CCO[C@H]1CC[C@H](N(c2cc(C#CC(C)(C)C)sc2C(=O)O)C(=O)[C@H]2CC[C@H](C)CC2)CC1
MEASURED_TARGET: Huh-7 ET, Molt-4, DU-145, Hep-G2 and SH-SY5Y cells
CC50: 10 to 100 µM

Enter recorded CC50 with Huh-7 ET, Molt-4, DU-145, Hep-G2 and SH-SY5Y cells for CC(=O)N1CC[C@@H](N(c2cc(C#CC(C)(C)C)sc2C(=O)O)C(=O)[C@H]2CC[C@H](C)CC2)C1 (stereo in doubt) here.
> 100 µM

System Huh-7 ET, Molt-4, DU-145, Hep-G2 and SH-SY5Y cells. Read-out CC50. Item CC(C)c1noc(C(C)N(c2cc(C#CC(C)(C)C)sc2C(=O)O)C(=O)[C@H]2CC[C@H](C)CC2)n1 (stereo partly drawn) . Report value.
10 to 100 µM

Write down the reported CC50 (system: Huh-7 ET, Molt-4, DU-145, Hep-G2 and SH-SY5Y cells) of CN(C)C[C@H]1C[C@H](N(c2cc(C#CC(C)(C)C)sc2C(=O)O)C(=O)[C@H]2CC[C@H](C)CC2)C1
> 100 µM

====

Consider the following molecules and their measured CC50 at 72 h readings.
- PROCEDURE_TEXT: [3H]Thymidine incorporation assay (cytotoxicity, CC50)
- ASSAY_SETUP: human

COMPOUND: CN(C)C(=O)[C@H]1C[C@@H](N(c2cc(C#CC(C)(C)C)sc2C(=O)O)C(=O)[C@H]2CC[C@H](C)CC2)C1
CC50 at 72 h: 10 to 100 µM

COMPOUND: CC(C)(C)C#Cc1cc(N(C(=O)[C@H]2CC[C@H](C)CC2)[C@@H]2CCNC2)c(C(=O)O)s1
CC50 at 72 h: > 100 µM

COMPOUND: Cn1ccnc1CN(c1cc(C#CC(C)(C)C)sc1C(=O)O)C(=O)[C@H]1CC[C@H](C)CC1
CC50 at 72 h: 10 to 100 µM

# next molecule below
Output CC50 at 72 h of Cn1cc(CN(c2cc(C#CC(C)(C)C)sc2C(=O)O)C(=O)[C@H]2CC[C@H](C)CC2)cn1
> 100 µM

====

- PROCEDURE_TEXT: [3H]Thymidine incorporation assay (cytotoxicity, CC50)
- ASSAY_SETUP: human
This listing pairs compounds with measured CC50 at 72 h.

# example entries with known answers
COMPOUND: CC(C)N(c1cc(C#CC(C)(C)O)sc1C(=O)O)C(=O)[C@H]1CC[C@H](C)CC1 [Compound 19]
CC50 at 72 h: > 100 µM
//
COMPOUND: CC(C)(C)C#Cc1cc(N(C(=O)[C@H]2CC[C@H](C)CC2)C2CCC(F)(F)CC2)c(C(=O)O)s1 [Compound 14]
CC50 at 72 h: 10 to 100 µM
//
COMPOUND: COC(C)(C)C#Cc1cc(N(C(=O)[C@H]2CC[C@H](C)CC2)C(C)C)c(C(=O)O)s1 [Compound 22]
CC50 at 72 h: 10 to 100 µM

--- query ---
Give CC50 at 72 h for CC(CN1CCOCC1)N(c1cc(C#CC(C)(C)C)sc1C(=O)O)C(=O)[C@H]1CC[C@H](C)CC1 (relative stereo) [Compound 72]
10 to 100 µM

====

- PROCEDURE_TEXT: [3H]Thymidine incorporation assay (cytotoxicity, CC50)
- ASSAY_SETUP: human
EXPERIMENTAL_READOUT: CC50 at 72 h

Reference set (4 entries):
MOLECULE: CC(C)N(c1cc(C#Cc2ccccc2)sc1C(=O)O)C(=O)[C@H]1CC[C@H](C)CC1
CC50 at 72 h: 10 to 100 µM
--
MOLECULE: CC(C)(C)C#Cc1cc(N(C(=O)c2ccc(Cl)cc2F)[C@H]2CC[C@H](O)CC2)c(C(=O)O)s1
CC50 at 72 h: 10 to 100 µM
--
MOLECULE: Cn1cncc1CN(c1cc(C#CC(C)(C)C)sc1C(=O)O)C(=O)[C@H]1CC[C@H](C)CC1
CC50 at 72 h: > 100 µM
--
MOLECULE: Cc1ccc(C(=O)N(c2cc(C#CC(C)(C)C)sc2C(=O)O)[C@H]2CC[C@H](O)CC2)c(F)c1
CC50 at 72 h: 10 to 100 µM

Using the record for CC(C)(C)C#Cc1cc(N(CCN2CCOCC2)C(=O)[C@H]2CC[C@H](C)CC2)c(C(=O)O)s1 , state its measured CC50 at 72 h.
10 to 100 µM

Return CC50 at 72 h for the following molecule: CC(C)(C)C#Cc1cc(N(C(=O)[C@H]2CC[C@H](C)CC2)C2CC=C(F)CC2)c(C(=O)O)s1 (relative stereo)
10 to 100 µM
